Origin of measurements: patent US9795140B2

Each item that follows carries a reported mortality at 50 µg/cm2.
Test system: Beet Armyworm (Spodoptera exigua, LAPHEG)
protocol text: Bioassay on Beet Armyworm (BAW), 128-well diet tray assay
Assay type: in vivo
condition: 168 h, 50 μg/cm^2 on artificial diet, second instar larvae, 25° C., five to seven days, average of eight wells, read-out: BAW % Control (or Mortality) rating

compound	mortality at 50 µg/cm2
NS(=O)(=O)CCCNC(=O)c1cc(NC(=O)[C@H]2[C@H](c3cc(Cl)cc(Cl)c3)C2(Cl)Cl)ccc1Cl (relative stereo) [PF14]	0 to 50%
CC(NC(=O)c1cc(NC(=O)[C@H]2[C@H](c3cc(Cl)cc(Cl)c3)C2(Cl)Cl)ccc1Cl)c1ccc(F)cc1 (relative stereo) [F96]	50 to 100%
O=C(NCC(F)(F)F)c1cc(NC(=O)[C@H]2[C@H](c3ccc(F)c(C(F)F)c3)C2(Cl)Cl)ccc1Cl (relative stereo) [F131]	50 to 100%
CCNC(=O)c1cc(NC(=O)[C@H]2[C@H](c3cc(Cl)c(OC)c(Cl)c3)C2(Cl)Cl)ccc1Cl (relative stereo) [F85]	50 to 100%
COc1c(Cl)cc([C@H]2[C@H](C(=O)Nc3ccc(Cl)c(C(=O)NCC(F)(F)F)c3)C2(Cl)Cl)cc1Cl (relative stereo) [F87]	50 to 100%
CC(C)CNC(=O)c1cc(NC(=O)[C@H]2[C@H](c3cc(Cl)cc(Cl)c3)C2(Cl)Cl)ccc1Cl (relative stereo) [F30]	50 to 100%
